// values below are pIC50; system is PI3 Kinase α (Homo sapiens);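 further: enzyme reaction with inhibitor or DMSO control, 30–60 min at room temperature, stopped by EDTA, then TAMRA detector with GST-GRP fluorescence polarization read after 90–110 min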
Sequence (P42336 whole entry): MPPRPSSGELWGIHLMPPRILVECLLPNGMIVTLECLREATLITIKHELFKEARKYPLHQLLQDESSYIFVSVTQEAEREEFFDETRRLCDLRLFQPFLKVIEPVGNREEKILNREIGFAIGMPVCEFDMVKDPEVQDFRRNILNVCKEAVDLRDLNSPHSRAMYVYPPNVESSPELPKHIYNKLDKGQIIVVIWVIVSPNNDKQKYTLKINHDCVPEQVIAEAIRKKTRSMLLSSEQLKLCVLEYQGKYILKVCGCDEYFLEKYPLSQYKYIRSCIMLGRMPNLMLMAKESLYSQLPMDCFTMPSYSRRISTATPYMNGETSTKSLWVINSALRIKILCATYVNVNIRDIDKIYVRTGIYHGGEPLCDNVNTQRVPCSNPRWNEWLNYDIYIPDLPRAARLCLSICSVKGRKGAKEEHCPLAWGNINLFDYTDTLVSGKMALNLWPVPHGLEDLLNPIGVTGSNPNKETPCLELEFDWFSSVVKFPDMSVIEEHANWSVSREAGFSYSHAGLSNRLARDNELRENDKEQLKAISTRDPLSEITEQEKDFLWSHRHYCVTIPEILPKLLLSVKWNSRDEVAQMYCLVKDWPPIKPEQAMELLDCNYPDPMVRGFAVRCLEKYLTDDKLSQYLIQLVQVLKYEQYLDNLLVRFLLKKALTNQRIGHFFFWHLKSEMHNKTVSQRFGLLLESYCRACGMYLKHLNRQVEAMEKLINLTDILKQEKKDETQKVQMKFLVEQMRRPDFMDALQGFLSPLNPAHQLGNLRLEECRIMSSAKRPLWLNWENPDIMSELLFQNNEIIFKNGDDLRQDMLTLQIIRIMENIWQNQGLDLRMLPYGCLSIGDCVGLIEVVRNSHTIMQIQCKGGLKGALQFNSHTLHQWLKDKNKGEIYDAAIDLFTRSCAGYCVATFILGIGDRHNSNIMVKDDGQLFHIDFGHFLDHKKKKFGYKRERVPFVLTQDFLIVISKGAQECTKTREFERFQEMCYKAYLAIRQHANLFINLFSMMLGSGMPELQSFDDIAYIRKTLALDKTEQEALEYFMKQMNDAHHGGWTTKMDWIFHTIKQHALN
Sequence (P27986 whole entry partner): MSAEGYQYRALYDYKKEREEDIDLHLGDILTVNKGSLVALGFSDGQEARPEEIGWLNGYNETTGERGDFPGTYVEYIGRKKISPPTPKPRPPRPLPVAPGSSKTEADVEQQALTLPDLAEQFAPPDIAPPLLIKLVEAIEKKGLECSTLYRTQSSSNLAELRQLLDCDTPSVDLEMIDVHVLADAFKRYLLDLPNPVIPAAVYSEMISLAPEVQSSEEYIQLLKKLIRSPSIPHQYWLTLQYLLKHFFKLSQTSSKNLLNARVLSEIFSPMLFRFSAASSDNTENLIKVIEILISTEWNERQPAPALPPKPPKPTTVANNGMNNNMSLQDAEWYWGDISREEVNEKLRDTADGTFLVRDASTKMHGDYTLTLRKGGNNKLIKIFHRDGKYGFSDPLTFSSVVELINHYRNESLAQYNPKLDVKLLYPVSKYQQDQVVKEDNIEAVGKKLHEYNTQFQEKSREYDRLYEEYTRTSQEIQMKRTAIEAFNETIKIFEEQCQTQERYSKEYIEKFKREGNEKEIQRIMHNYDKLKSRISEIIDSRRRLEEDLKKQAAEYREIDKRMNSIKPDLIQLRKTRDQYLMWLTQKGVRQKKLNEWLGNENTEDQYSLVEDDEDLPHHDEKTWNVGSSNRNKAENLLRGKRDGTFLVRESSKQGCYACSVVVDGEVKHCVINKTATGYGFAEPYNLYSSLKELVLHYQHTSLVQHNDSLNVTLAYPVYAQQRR
pIC50: −log10 of the molar value.
property: pIC50

structure.notation	recorded.measurement
Oc1cccc(-c2nc(N3CCOCC3)c3[nH]cc(C4CCN(Cc5ccccc5F)CC4)c3n2)c1	6.78
c1ccc(COc2cccc(-c3nc(N4CCOCC4)c4[nH]ccc4n3)c2)cc1	6.02
O=C(NCCCO)Nc1cccc(-c2nc(N3CCOCC3)c3[nH]ccc3n2)c1	5.21
Oc1cccc(-c2nc(N3CCOCC3)c3[nH]cc(C4CCN(Cc5ccc[nH]5)CC4)c3n2)c1	6.95
OCc1cccc(-c2nc(N3CCOCC3)c3[nH]cc(C4=CCN(Cc5ccccc5)CC4)c3n2)c1	6.59
CNC(=O)Nc1ccc(-c2nc(N3CCOCC3)c3[nH]ccc3n2)cc1	5.57
OCc1cccc(-c2nc(N3CCOCC3)c3[nH]cc(CNCCN4CCCCC4)c3n2)c1	7.14
OCc1cccc(-c2nc(N3CCOCC3)c3[nH]cc(C4=CCNCC4)c3n2)c1	6.39
